This collection of values is drawn from ChEMBL document CHEMBL4689842.

System: U2OS
method: Multiplex assay against U2OS
Type: toxicity, cell-based
appliedConditions: human, 12 h, 10 µM, compound concentration 10 uM, replicate 1

compound	Population Normal (%)
Cc1cccc(CN2CCN(C(c3ccccc3)c3ccc(Cl)cc3)CC2)c1.Cl.Cl (stereo not given)	94
CC(C)CC(=O)Nc1[nH]nc2c1CN(C(=O)C1CCN(C)CC1)C2(C)C [PHA-793887]	96
Cc1ccccc1C(c1ccccc1C)N1C2CCC1CC(O)(c1ccccc1)C2 (stereo not given)	96
CC(C)Oc1ccccc1C(=O)Nc1ccccc1C(=O)Nc1cccc(S(=O)(=O)C(F)(F)F)c1	91
C=CC(=O)Nc1cccc(Oc2nc(Nc3ccc(N4CCN(C)CC4)cc3OC)ncc2Cl)c1	98
COc1cc(Nc2nccc(-c3cnn4nc(OC)ccc34)n2)cc(C(F)(F)F)c1	84
COc1ccccc1CN[C@H]1C2CCN(CC2)[C@H]1C(c1ccccc1)c1ccccc1 [CP-96345]	93
CC(C)c1noc(N2CCC(COc3ccc(-c4ccc(S(C)(=O)=O)cc4)nc3)CC2)n1 [GSK-1292263]	92
C=CC(=O)Nc1cccc(Sc2nc(Nc3ccc(N4CCN(C)CC4)cc3)ncc2Cl)c1	98
CNC(=O)Nc1ccc2c(c1)[C@@]1(CC2)OC(=O)N(CC(=O)N(Cc2ccc(F)cc2)[C@@H](C)C(F)(F)F)C1=O [A-486]	99
O=c1cc(N2CCOCC2)oc2c(-c3cccc4c3sc3ccccc34)cccc12	95
Cc1ccc2c(c1)c1c(n2CCc2ccc(C)nc2)CCN(C)C1 [LATREPIRDINE]	92
COC(=O)C1=C(C)NC(C)=C(C(=O)OCCCN2CCC(c3ccccc3)(c3ccccc3)CC2)[C@H]1c1cccc([N+](=O)[O-])c1 [NIGULDIPINE]	92
CC(C)(C)NC[C@H](O)COc1nsnc1N1CCOCC1 [TIMOLOL]	93
CC1=C(C(=O)Nc2cc3cn[nH]c3cc2F)C(c2ccc(C(F)(F)F)cc2)CC(=O)N1 (stereo not given)	91

* * *

Parameter: Population Hoechst High Intensity Objects (%). Scope: all listed entries.
Tested on: Fibroblast
method: Multiplex assay against human fibroblast
Format: toxicity, cell-based
appliedConditions: 24 h, 1 µM, compound concentration 1 uM, replicate 2
measuredMetric: Population Hoechst High Intensity Objects (%)

molecule	val
CC(C)OC(=O)N1CCC(Oc2ncnc3c2cnn3-c2ccc(S(C)(=O)=O)cc2F)CC1	2
CN1CCN(Cc2ccc(Nc3ncc(Cl)c(Nc4ccccc4S(=O)(=O)N(C)C)n3)cc2)CC1 [DUBERMATINIB]	6
CNC(=O)Nc1ccc2c(c1)[C@@]1(CC2)OC(=O)N(CC(=O)N(Cc2ccc(F)cc2)[C@@H](C)C(F)(F)F)C1=O [A-486]	33

* * *

Tested on: Fibroblast
method: Multiplex assay against human fibroblast
Format: toxicity, cell-based
appliedConditions: 12 h, 1 µM, compound concentration 1 uM, replicate 1
Strictly below 30% in Population Mitotic Cells (%): Condition met. Otherwise: Condition not met.

compound	categoryLabel
Cl.O=C(O)c1cc(-c2ccc(C3CCNCC3)cc2)c2ccc(-c3ccc(C(F)(F)F)cc3)cc2c1	Condition not met
COc1ccc(-c2ccc3ncc4c(c3c2)n(-c2ccc(N3CCNCC3)c(C(F)(F)F)c2)c(=O)n4C)cn1.O=C(O)/C=C\C(=O)O	Condition not met
Cc1nc(N2CC[C@H](O)C2)ncc1-c1cc(C(F)(F)F)cc2[nH]ncc12	Condition met
CCc1ccc(OCc2ccccc2C(=O)Nc2ccc3nc(C)cc(N)c3c2)cc1.Cl	Condition not met
C=CC(=O)Nc1cccc(Sc2nc(Nc3ccc(N4CCN(C)CC4)cc3)ncc2Cl)c1	Condition not met
CC(C)NC(=O)N1CC[C@H](NC2=Nc3cc(F)ccc3N(CC(F)F)c3ccc(Cl)cc32)C1	Condition not met
O=c1cc(N2CCOCC2)oc2c(-c3cccc4c3sc3ccccc34)cccc12	Condition not met
COc1ccccc1CN[C@H]1C2CCN(CC2)[C@H]1C(c1ccccc1)c1ccccc1	Condition not met
CN1CCN(Cc2ccc(Nc3ncc(Cl)c(Nc4ccccc4S(=O)(=O)N(C)C)n3)cc2)CC1	Condition not met
CCc1nn(CCCN2CCN(c3cccc(Cl)c3)CC2)c(=O)n1CCOc1ccccc1.Cl [NEFAZODONE HYDROCHLORIDE]	Condition not met
COc1cc(Nc2nccc(-c3cnn4nc(OC)ccc34)n2)cc(C(F)(F)F)c1	Condition not met
Cc1ccc2c(c1)c1c(n2CCc2ccc(C)nc2)CCN(C)C1 [LATREPIRDINE]	Condition not met
CC(C)c1noc(N2CCC(COc3ccc(-c4ccc(S(C)(=O)=O)cc4)nc3)CC2)n1	Condition not met
COc1cc2ncn(-c3cc(OCc4ccccc4C(F)(F)F)c(C(N)=O)s3)c2cc1OC [GW843682X]	Condition not met
CC(C)Oc1ccccc1C(=O)Nc1ccccc1C(=O)Nc1cccc(S(=O)(=O)C(F)(F)F)c1	Condition met
Cc1cccc(CN2CCN(C(c3ccccc3)c3ccc(Cl)cc3)CC2)c1.Cl.Cl (stereo unspecified)	Condition not met
CC(C)(C)NC[C@H](O)COc1nsnc1N1CCOCC1	Condition met
CCOC(=O)Nc1cc(-c2ccc(C)c(NS(C)(=O)=O)c2)nn2c(C)nnc12	Condition met
CNC(=O)Nc1ccc2c(c1)[C@@]1(CC2)OC(=O)N(CC(=O)N(Cc2ccc(F)cc2)[C@@H](C)C(F)(F)F)C1=O	Condition not met
CC(C)OC(=O)N1CCC(Oc2ncnc3c2cnn3-c2ccc(S(C)(=O)=O)cc2F)CC1	Condition not met
CNC(=O)Nc1ccc(-c2nc(N3CC4CCC(C3)O4)c3cnn(C4CCC5(CC4)OCCO5)c3n2)cc1	Condition not met
CC(C)CC(=O)Nc1[nH]nc2c1CN(C(=O)C1CCN(C)CC1)C2(C)C	Condition met
C=CC(=O)Nc1ccc2[nH]c(=O)n(C3CCN(Cc4ccc(-c5nc6cc[nH]c(=O)c6cc5-c5ccccc5)cc4)CC3)c2c1	Condition not met
C[C@]12CC[C@@H]3c4ccc(O)cc4CC[C@H]3[C@@H]1CC[C@@H]2O	Condition met
O=C(c1cc2c(cc1F)OC(c1ccc(F)cc1)(c1ccc(Cl)cc1Cl)O2)N1CCOCC1 (stereo unspecified)	Condition not met
Cc1ccccc1C(c1ccccc1C)N1C2CCC1CC(O)(c1ccccc1)C2 (stereo unspecified)	Condition not met
O=c1[nH]c2ccccc2n1C1CCN(Cc2ccc(-c3[nH]c4cc5ncnc5cc4nc3-c3ccccc3)cc2)CC1	Condition not met
CC1=C(C(=O)Nc2cc3cn[nH]c3cc2F)C(c2ccc(C(F)(F)F)cc2)CC(=O)N1 (stereo unspecified)	Condition met
Cc1c[nH]c2nccc(Oc3c(F)cc(Nc4cc(Cl)nc(N)n4)cc3F)c12	Condition not met
CCCSc1nc(N[C@@H]2C[C@H]2c2ccc(F)c(F)c2)c2nnn([C@@H]3C[C@H](OCCO)[C@@H](O)[C@H]3O)c2n1	Condition not met
COC(=O)C1=C(C)NC(C)=C(C(=O)OCCCN2CCC(c3ccccc3)(c3ccccc3)CC2)[C@H]1c1cccc([N+](=O)[O-])c1	Condition not met
